# System: IL-6
# test_details: IL-6 assay (ELISA) in Ad5-wt-ER infected HAECT-1 cells
# Assay type: cell-based, human
# test_conditions: Homo sapiens, HAECT1, Ad5-wt-ER infected HAECT-1 cells, IL-1 treated
pIC50: −log10 of the molar value.
recorded_endpoint: pIC50

Field: example entries. Status: answers known.
compound	recorded_result
CCC1c2ccccc2-c2sccc2N1S(=O)(=O)c1ccc(O)cc1 (stereo not drawn) [Example 5]	7.67
CC1c2ccccc2-c2sc(Br)cc2N1S(=O)(=O)c1ccc(O)cc1 (stereo not drawn) [Example 6]	7.55

P. CC1c2ccccc2-c2sccc2N1S(=O)(=O)c1ccc(O)cc1 (stereo not drawn) [Example 4]
Q. CCC1c2ccccc2-c2sc(Br)cc2N1S(=O)(=O)c1ccc(O)cc1 (stereo not drawn) [Example 9]
R. CCC1c2ccccc2-c2sc(-c3ccccc3)cc2N1S(=O)(=O)c1ccc(O)cc1 (stereo not drawn) [Example 11]
S. CC1c2ccccc2-c2sc(Br)cc2N1S(=O)(=O)c1ccc(O)c(Br)c1 (stereo not drawn) [Example 12]
Put the compounds in ascending order of pIC50. // rank by listing labels in the order requested
S, P, R, Q
(S: 5.83, P: 7.18, R: 7.61, Q: 8.11)
